All figures here come from patent US11046715B2.

tested on: A549: human non-small-cell lung carcinoma; assay: In vitro cytotoxicity / antiproliferation, A549; format: cell-based
pIC50: −log10 of the molar value.
measured endpoint: pIC50

Item: "COc1ccc(C(=O)NOCc2ccc(B3OC(C)(C)C(C)(C)O3)cc2)cc1" | pIC50: < 5.00

Item: "CC1(C)OB(c2ccc(CONC(=O)c3cc4ccccc4oc3=O)cc2)OC1(C)C" | pIC50: < 5.00

Item: "COc1cc(C(=O)NOCc2ccc(B3OC(C)(C)C(C)(C)O3)cc2)cc(OC)c1OC" | pIC50: < 5.00
